Target: T1, TRCW5 antigen (CD3δε-Fc-Avi) (biotinylated (site not stated))
T1 construct: also called recombinant CD3
T1 sequence (chain, as listed by the source mutant limits assumed): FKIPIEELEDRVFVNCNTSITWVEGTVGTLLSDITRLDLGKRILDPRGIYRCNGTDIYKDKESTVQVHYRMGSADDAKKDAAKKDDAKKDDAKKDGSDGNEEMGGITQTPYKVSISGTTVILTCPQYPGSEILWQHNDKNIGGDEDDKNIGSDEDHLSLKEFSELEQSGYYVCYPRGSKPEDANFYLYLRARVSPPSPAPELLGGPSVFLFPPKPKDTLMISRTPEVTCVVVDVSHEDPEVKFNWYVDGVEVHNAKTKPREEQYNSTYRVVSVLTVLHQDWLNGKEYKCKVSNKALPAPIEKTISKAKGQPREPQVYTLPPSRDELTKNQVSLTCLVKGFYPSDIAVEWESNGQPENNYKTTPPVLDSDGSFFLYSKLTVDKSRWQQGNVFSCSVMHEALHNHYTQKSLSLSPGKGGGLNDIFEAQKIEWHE
Assay: binding after heat

BINDER	% Retained 65° C. / %
CD3B2089 N106F (scFv) scFv: QVQLVQSGAEVKKPGSSVKVSCKASGYTFTRSTMHWVRQAPGQGLEWMGYINPSSAYTNYAQKFQGRVTLTADKSTSTAYMELSSLRSEDTAVYYCASPQVHYDYFGFPYWGQGTLVTVSSGGSEGKSSGSGSESKSTGGSEIVLTQSPATLSASPGERVTLSCSASSSVSYMNWYQQKPGQAPRRWIYDSSKLASGVPARFSGSGSGRDYTLTISSLEPEDFAVYYCQQWSRNPPTFGGGTKVEIK	36.2
CD3B2051 N106K (scFv) scFv: QVQLVQSGAEVKKPGSSVKVSCKASGYTFTRSTMHWVKQAPGQGLEWMGYINPSSAYTNYNQKFQGRVTLTADKSTSTAYMELSSLRSEDTAVYYCASPQVHYDYKGFPYWGQGTLVTVSSGGSEGKSSGSGSESKSTGGSEIVLTQSPATLSASPGERVTLSCSASSSVSYMNWYQQKPGQAPRRLIYDSSKLASGVPARFSGSGSGRDYTLTISSLEPEDFAVYYCQQWSRNPPTFGGGTKVEIK	4
CD3B2089 N106T (scFv) scFv: QVQLVQSGAEVKKPGSSVKVSCKASGYTFTRSTMHWVRQAPGQGLEWMGYINPSSAYTNYAQKFQGRVTLTADKSTSTAYMELSSLRSEDTAVYYCASPQVHYDYTGFPYWGQGTLVTVSSGGSEGKSSGSGSESKSTGGSEIVLTQSPATLSASPGERVTLSCSASSSVSYMNWYQQKPGQAPRRWIYDSSKLASGVPARFSGSGSGRDYTLTISSLEPEDFAVYYCQQWSRNPPTFGGGTKVEIK	1.4
